target: MAP kinase-activated protein kinase 5 (Homo sapiens); conditions: at 1 µM;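 also: mean inhibition of PRAK measured in the GSK PKIS screen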
Use 1 when the recorded inhibition is no lower than 1%; use 0 when it is lower.

Solved entries (count: 4):
{"columns": ["Compound String", "Group Label"],
 "data": [
  ["c1ccc(-c2nc3n(c2-c2ccc4c(c2)OCO4)CCC3)nc1", 0],
  ["CC(C)COC(=O)c1ccc2c(c1)/C(=C/Nc1ccc(S(N)(=O)=O)cc1)C(=O)N2", 1],
  ["COc1ccc2c(-c3ccnc(Nc4cccc(OC(F)(F)F)c4)n3)cnn2n1", 1],
  ["N#Cc1c(NC(=O)CN2CCOCC2)sc2c1CCCC2", 1]
]}

## Task Exam item: decide whether the reported inhibition for "CS(=O)(=O)CCNCc1coc(-c2ccc3ncnc(Nc4ccc(OCc5ccccc5)cc4)c3c2)c1" is at least 1%.
## Result 1

====

Measured inhibition values are reported for all entries that follow.
molecular target: Casein kinase I isoform gamma-1 (Homo sapiens) (UniProt Q9HCP0); conditions: at 0.1 µM;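 also: reported as mean inhibition, part of GSK PKIS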
Sequence (Q9HCP0 whole entry, looked up, canonical isoform): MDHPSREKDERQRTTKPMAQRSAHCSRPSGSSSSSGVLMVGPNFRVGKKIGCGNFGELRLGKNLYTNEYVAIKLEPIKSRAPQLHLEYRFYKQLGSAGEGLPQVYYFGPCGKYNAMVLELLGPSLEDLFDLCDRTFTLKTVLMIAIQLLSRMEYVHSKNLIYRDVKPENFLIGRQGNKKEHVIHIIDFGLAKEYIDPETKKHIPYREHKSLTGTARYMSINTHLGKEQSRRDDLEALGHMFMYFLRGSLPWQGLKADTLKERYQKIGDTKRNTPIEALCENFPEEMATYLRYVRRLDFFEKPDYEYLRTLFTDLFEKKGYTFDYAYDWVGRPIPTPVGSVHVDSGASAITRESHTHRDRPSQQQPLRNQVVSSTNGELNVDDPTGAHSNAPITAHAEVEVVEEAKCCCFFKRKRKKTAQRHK
Dear colleague, please return just the value in %, with no unit written.

Recorded inhibition, per entry:
{"columns": ["Compound String", "inhibition, %"],
 "data": [
  ["Clc1ccc(-c2nn3ncccc3c2-c2ccnc(Nc3ccccc3)n2)cc1", 3.83],
  ["CCN(CC)S(=O)(=O)c1ccc(OC)c(Nc2ncc(-c3ccccc3)o2)c1", 0.91],
  ["CCn1c(-c2nonc2N)nc2cnc(Oc3cccc(NC(=O)c4ccc(N(C)C)cc4)c3)cc21", 1.44],
  ["[O-][S+]1CCN(Cc2ccc(-c3ccc4ncnc(Nc5ccc(OCc6cccc(F)c6)c(Cl)c5)c4c3)o2)CC1", 4.04],
  ["COc1cc(Nc2nccc(Nc3ccc4c(C)n[nH]c4c3)n2)cc(OC)c1OC", 2.35],
  ["CC(C)COC(=O)c1ccc2c(c1)/C(=C/Nc1ccc(S(N)(=O)=O)cc1)C(=O)N2", -1.63]
]}

## Task GET /values?readout=inhibition&item= "COc1ccc(-c2nn3ncccc3c2-c2ccnc(Nc3ccc4c(c3)OCCO4)n2)cc1"
## Result 1.16

## Task GET /values?readout=inhibition&item= "Fc1cccc(COc2ccc(Nc3ncnc4sc(-c5ccco5)cc34)cc2Cl)c1"
## Result 4.55

## Task GET /values?readout=inhibition&item= "CNC(=O)c1cncc(/C=C/c2ccccc2Cl)c1"
## Result 0.2

## Task GET /values?readout=inhibition&item= "Fc1ccc(-c2nn3ncccc3c2-c2ccnc(Nc3ccc4c(c3)OCCO4)n2)cc1"
## Result 14.8

## Task GET /values?readout=inhibition&item= "CCc1nn2ncccc2c1-c1ccnc(NC2CC2)n1"
## Result 1.08

## Task GET /values?readout=inhibition&item= "NS(=O)(=O)c1ccc(Nc2ncc(-c3ccccc3)o2)cc1"
## Result 2.83

## Task GET /values?readout=inhibition&item= "O=S(=O)(CCNCc1ccc(-c2ccc3ncnc(Nc4ccc(OCc5cccc(F)c5)c(Cl)c4)c3c2)o1)c1ccccc1"
## Result 4.93

## Task GET /values?readout=inhibition&item= "CCn1c(-c2nonc2N)nc2c(C#CC(C)(C)O)ncc(OC3CCNCC3)c21"
## Result 2.94

## Task GET /values?readout=inhibition&item= "Fc1ccc(-c2cc(-c3c[nH]nc3-c3ccccn3)ccn2)cc1"
## Result 4.51

## Task GET /values?readout=inhibition&item= "N#Cc1c(NC(=O)c2ccc(F)cc2)sc2c1CCCC2"
## Result 0.85

## Task GET /values?readout=inhibition&item= "COC(=O)Nc1nc2ccc(Oc3ccc(NC(=O)Nc4cccc(Cl)c4)cc3)cc2[nH]1"
## Result 0.68

## Task GET /values?readout=inhibition&item= "COc1cccc(-c2c[nH]c3c(N/N=C/c4ccncc4)ncnc23)c1"
## Result 1.21

## Task GET /values?readout=inhibition&item= "FC(F)(F)c1cccc(-c2nn3ncccc3c2-c2ccnc(Nc3ccc4c(c3)OCCO4)n2)c1"
## Result 2.58

## Task GET /values?readout=inhibition&item= "Cc1ccc2c(-c3ccnc(Nc4ccccc4)n3)c(-c3ccc(F)cc3)nn2n1"
## Result 5.48

## Task GET /values?readout=inhibition&item= "CCNC(=O)O[C@H]1CN[C@H](C#Cc2cc3ncnc(Nc4ccc(OCc5cccc(F)c5)c(Cl)c4)c3s2)C1"
## Result 2.15

## Task GET /values?readout=inhibition&item= "COC(=O)c1sc(-n2cnc3cc(OC)c(OC)cc32)cc1OCc1ccccc1C(F)(F)F"
## Result 4.13

## Task GET /values?readout=inhibition&item= "COc1ccc(-c2cc3c(N)ncnc3o2)cc1"
## Result -1.13

## Task GET /values?readout=inhibition&item= "COc1ccc2[nH]c3c4[nH]c5ccc(OC)cc5c4c4c(c3c2c1)C(=O)NC4=O"
## Result 4.82

====

molecular target: Mitogen-activated protein kinase 14 (Homo sapiens) (UniProt Q16539); conditions: at 0.1 µM;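 also: values are mean percent inhibition of p38α kinase from the GSK PKIS published kinase inhibitor set screen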
Sequence (Q16539 whole entry): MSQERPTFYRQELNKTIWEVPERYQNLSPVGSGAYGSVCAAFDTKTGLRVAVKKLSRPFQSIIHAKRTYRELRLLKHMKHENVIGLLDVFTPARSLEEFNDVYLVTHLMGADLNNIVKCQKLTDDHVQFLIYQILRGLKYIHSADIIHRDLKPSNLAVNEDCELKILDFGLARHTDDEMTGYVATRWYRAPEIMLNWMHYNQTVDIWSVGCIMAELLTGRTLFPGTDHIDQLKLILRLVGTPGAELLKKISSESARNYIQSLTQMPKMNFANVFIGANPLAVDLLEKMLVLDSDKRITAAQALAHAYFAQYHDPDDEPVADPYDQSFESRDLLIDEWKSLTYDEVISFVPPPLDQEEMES
Measured inhibition values are reported for all entries that follow.
Dear colleague, please return just the value in %, with no unit written.

## Task GET /values?readout=inhibition&item= "FC(F)(F)c1cccc(-c2nn3ncccc3c2-c2ccnc(Nc3ccc4c(c3)OCCO4)n2)c1"
## Result 30

====

Measured inhibition values are reported for all entries that follow.
target: Non-receptor tyrosine-protein kinase TYK2 (Homo sapiens); details: at 0.1 µM;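 also: each value is a mean of the inhibition readings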
Dear colleague, please return just the value in %, with no unit written.

Recorded inhibition, per entry:
{"columns": ["Compound", "Quantity Unit", "inhibition"],
 "data": [
  ["CCCN1CCC(c2ccc(Nc3nc(Nc4cc(F)ccc4C(N)=O)c4cc[nH]c4n3)c(OC)c2)CC1", "%", -2.8],
  ["O=C(O[C@H]1CN[C@H](C#Cc2cc3ncnc(Nc4ccc(Cc5ccccc5)cc4)c3s2)C1)N1CCOCC1", "%", -1.59],
  ["NC(=O)c1sc(-n2cnc3ccc(C(F)(F)F)cc32)cc1OCc1ccccc1Br", "%", -4.87]
]}

Let's switch to this compound now.
## Task GET /values?readout=inhibition&item= CC1=C(C(=O)Nc2cc(Cl)c3[nH]ncc3c2)C(c2ccc(C(F)(F)F)cc2)CC(=O)N1 (centres undefined)
## Result -1.59

====

molecular target: Tyrosine-protein kinase CSK (Homo sapiens); conditions: at 0.1 µM;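 also: value given is the averaged percent inhibition of CSK kinase activity, from the GSK PKIS kinase inhibitor set screening panel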
Measured inhibition values are reported for all entries that follow.
Dear colleague, please return just the value in %, with no unit written.

Recorded inhibition, per entry:
{"columns": ["Molecule", "Numeric Result"],
 "data": [
  ["NS(=O)(=O)c1ccc(N/N=C2\\C(=O)Nc3ccc4ncccc4c32)cc1", 1.66],
  ["FC(F)(F)c1cccc(-c2nn3ncccc3c2-c2ccnc(Nc3ccc4c(c3)OCCO4)n2)c1", 5.73],
  ["COC(=O)Nc1nc2ccc(S(=O)(=O)c3ccc(NC(=O)Nc4cc(C(F)(F)F)ccc4F)cc3)cc2[nH]1", 2.8],
  ["CN1CCC(n2cnc(-c3ccc(F)cc3)c2-c2ccnc(N)n2)CC1", 7.73],
  ["CC1=C(C(=O)Nc2cc(Cl)c3[nH]ncc3c2)C(c2ccc(C(F)(F)F)cc2)CC(=O)N1 (stereo unspecified)", 4.43],
  ["CCCN(CCS(C)(=O)=O)Cc1ccc(-c2ccc3ncnc(Nc4ccc(OCc5cccc(F)c5)c(Cl)c4)c3c2)o1", 1.98]
]}

## Task GET /values?readout=inhibition&item= "CN(C)CCOc1ccc(-c2nc(-c3ccncc3)c(-c3ccc4c(c3)CC/C4=N\O)[nH]2)cc1"
## Result 6.25

## Task GET /values?readout=inhibition&item= "[O-][S+]1CCN(Cc2ccc(-c3ccc4ncnc(Nc5ccc(OCc6cccc(F)c6)c(Cl)c5)c4c3)o2)CC1"
## Result 6.74

## Task GET /values?readout=inhibition&item= "CNC(=O)c1cccc(C#Cc2cncnc2Nc2ccc(OCc3cccc(F)c3)c(Cl)c2)c1"
## Result 1.96

## Task GET /values?readout=inhibition&item= "c1ccc(-c2nc3n(c2-c2ccc4c(c2)OCO4)CCC3)nc1"
## Result 1.01

## Task GET /values?readout=inhibition&item= "Fc1ccc(-c2nn3ccccc3c2-c2ccncc2)cc1"
## Result -0.04

## Task GET /values?readout=inhibition&item= "CC(C)(CO)CNC(=O)c1ccc2c(c1)/C(=N/Nc1ccc(S(N)(=O)=O)cc1)C(=O)N2"
## Result 0.77

## Task GET /values?readout=inhibition&item= "NS(=O)(=O)c1ccc(Nc2ncc(-c3ccccc3)o2)cc1"
## Result 6.51

====

Molecular target: Testis-specific serine/threonine-protein kinase 1 (Homo sapiens);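 also: reported value is the mean inhibition, from the GSK PKIS kinase screening panel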
Sequence (whole entry): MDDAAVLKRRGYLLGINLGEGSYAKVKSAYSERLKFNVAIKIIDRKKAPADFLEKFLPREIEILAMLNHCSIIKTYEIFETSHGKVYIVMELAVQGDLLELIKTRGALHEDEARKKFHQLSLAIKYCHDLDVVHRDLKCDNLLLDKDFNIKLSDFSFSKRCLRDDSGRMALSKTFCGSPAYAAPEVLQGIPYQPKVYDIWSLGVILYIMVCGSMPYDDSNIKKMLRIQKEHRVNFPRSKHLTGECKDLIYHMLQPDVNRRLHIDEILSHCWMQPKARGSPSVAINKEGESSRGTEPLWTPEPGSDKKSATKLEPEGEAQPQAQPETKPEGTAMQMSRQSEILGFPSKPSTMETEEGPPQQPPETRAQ
Settings: at 1 µM
Recorded Metric: inhibition (%)
Dear colleague, please return just the value in %, with no unit written.

Recorded inhibition, per entry:
{"columns": ["Compound String", "Tgt", "inhibition / %"],
 "data": [
  ["FC(F)(F)c1cccc(-c2nn3ncccc3c2-c2ccnc(Nc3ccc4c(c3)OCCO4)n2)c1", "Testis-specific serine/threonine-protein kinase 1 (Homo sapiens)", 1.2],
  ["CCNC(=O)O[C@H]1CN[C@H](C#Cc2cc3ncnc(Nc4ccc(OCc5cccc(F)c5)c(Cl)c4)c3s2)C1", "Testis-specific serine/threonine-protein kinase 1 (Homo sapiens)", -2.91],
  ["CCCN(CCS(C)(=O)=O)Cc1ccc(-c2ccc3ncnc(Nc4ccc(OCc5cccc(F)c5)c(Cl)c4)c3c2)o1", "Testis-specific serine/threonine-protein kinase 1 (Homo sapiens)", 1.44],
  ["N#Cc1c(NC(=O)CN2CCOCC2)sc2c1CCCC2", "Testis-specific serine/threonine-protein kinase 1 (Homo sapiens)", 3.34]
]}

## Task GET /values?readout=inhibition&item= "CNC(=O)c1cccc(C#Cc2cncnc2Nc2ccc(OCc3cccc(F)c3)c(Cl)c2)c1"
## Result 1.56

## Task GET /values?readout=inhibition&item= "O=C(O[C@H]1CN[C@H](C#Cc2cc3ncnc(Nc4ccc(Cc5ccccc5)cc4)c3s2)C1)N1CCOCC1"
## Result 0.57

## Task GET /values?readout=inhibition&item= "CCN(CC)S(=O)(=O)c1ccc(OC)c(Nc2ncc(-c3ccccc3)o2)c1"
## Result -0.98

## Task GET /values?readout=inhibition&item= "CNC(=O)c1cncc(/C=C/c2ccccc2Cl)c1"
## Result 1.52
